Property: viability; scope: individual molecules
- method-description: viability of HCT116 without oncogenic beta-catenin – human colon tumor cells, pilot screen (AID 823);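 further: 0% = wells killed by 20 µM Hyamine and 100% = untreated DMSO cell wells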
- cond: HCT116 beta-catenin knockout viability, CellTiter-Glo, 60 h; at 10 µM; stronger effect = lower value
Records with an inconclusive call do not appear.
measurement-kind: viability (%)

                                   molecule  units_label  endpoint_value
0   COc1ccc(NC(=O)CSc2nnc(-c3ccccc3)n2N)cc1            %             101
1  CCOc1cccc(C(=O)N2CCCCC2c2cccnc2)c1 (centres undefined)            %             101
2  O=C(NCC1CCCO1)c1ccc(CS(=O)(=O)c2ccc(Br)cc2)o1 (centres undefined)            %            97.8
3     Cc1nc(Sc2nnnn2-c2ccccc2)c(C#N)c(C)c1C            %             108

* * *

- method-description: S. cerevisiae growth inhibition in restrictive medium, OD615, pilot screen, restrictive growth control, yeast lifespan reduction project (AID 706);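 further: modified DeaD lifespan yeast strain shifted to restrictive glucose medium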
- cond: OD615, 48 h, at 10 µM, stronger effect = higher value
Form field: growth inhibition (one value per entry).
measurement-kind: growth inhibition (%)

In [3]: df
Out[3]:
                                    compound   measurement_kind  endpoint_value
 0  CCOc1ccc(NC(=O)CN(c2cc(C)cc(C)c2)S(=O)(=O)c2c(C)noc2C)cc1  growth inhibition           -16.8
 1  Cc1noc(/C=C/N(C)C)c1S(=O)(=O)N1CCCC(C(=O)NCCC2=CCCCC2)C1 (stereo not drawn)  growth inhibition           -11.2
 2     COc1ccc(OC)c(C(=O)c2ccc(C(=O)O)cc2)c1  growth inhibition           -16.1
 3           Cc1ccc(-c2oc3ccccc3c(=O)c2O)cc1  growth inhibition           -12.3
 4          CCCc1cc(=O)oc2c(C)c3occ(C)c3cc12  growth inhibition            0.83
 5  COc1cccc(NC(=O)Cn2cnc3sc(C)c(S(=O)(=O)N4CCN(C)CC4)c3c2=O)c1  growth inhibition           -24.1
 6         CC(=O)c1cccc(NC(=O)CCOc2ccccc2)c1  growth inhibition            4.36
 7  CCOc1ccc(N=C2NC(=O)C(CC(=O)O)S2)cc1 (stereo not drawn)  growth inhibition               3
 8            CSc1cccc(NS(=O)(=O)c2ccccc2)c1  growth inhibition            3.39
 9           Cc1cc2cc(CNC(=O)C3CCCC3)ccc2n1C  growth inhibition           -10.2
10            Cc1ccc(CCP(=O)(O)CN2CCOCC2)cn1  growth inhibition           -9.14
11  COC(=O)CCCCC(=O)C1C(=O)CC(C)(C)C(C(=O)OC)C1=O (stereo not drawn)  growth inhibition            -6.2
12  CCOc1cccc(-c2nnc3n2N=C(c2cc(OC)ccc2OC)CS3)c1  growth inhibition            50.3
13  COc1ccc(N(CC(=O)Nc2ccc3c(c2)OCCO3)S(=O)(=O)c2cccnc2)cc1  growth inhibition            0.75
14          Cc1cc(C)n(-c2cc(N3CCOCC3)ncn2)n1  growth inhibition            12.9
15  CN(C(=O)c1ccc2c(c1)OCO2)C1(C(=O)NC2CCCCC2)CCCCC1  growth inhibition            0.39
16  COc1ccccc1NC1C=CS(=O)(=O)C1 (stereo not drawn)  growth inhibition            0.12
17  O=C(CN1CCN(c2ncccn2)CC1)N1CCN(C(c2ccccc2)c2ccccc2)CC1  growth inhibition           -2.38
18                     CSc1nc2ccccc2c(=O)n1N  growth inhibition            6.12
19          CCOC(=O)c1ccccc1NC(=O)CSc1nccn1C  growth inhibition            3.13
20  COc1ccc(OC)c(C2=NOC(C(=O)Nc3c(C)n(C)n(-c4ccccc4)c3=O)C2)c1 (stereo not drawn)  growth inhibition             -24
21                Nc1cc(N)nc(SCCOc2ccccc2)n1  growth inhibition          -0.825
22  Cc1ccc2[nH]c(=O)c3cc(C(=O)NCCN4CCN(C)CC4)sc3c2c1  growth inhibition             1.5
23  Cc1onc(-c2ccccc2Cl)c1C(=O)Nc1ccc(S(=O)(=O)N2CCCC2)cc1  growth inhibition            9.99
24  CC1CCCCN1S(=O)(=O)c1ccc(NC(=O)c2cccs2)cc1 (stereo not drawn)  growth inhibition           -13.5
25  O=C(COC(=O)C1CC2C=CC1C2)Nc1ccc2c(c1)OC(F)(F)O2 (stereo not drawn)  growth inhibition             3.8
26  COC(=O)Cn1c(CN2CCOCC2)nc2c1c(=O)n(C)c(=O)n2C  growth inhibition            1.05
27      CCCc1cc(C(=O)NCCc2ccc(OC)c(OC)c2)no1  growth inhibition            4.92
28  Cc1ccc2oc(=O)c3cnn(CC(=O)NCCc4ccsc4)c3c2c1  growth inhibition           -1.42
29         COc1ccc(OCCNS(=O)(=O)c2ccccc2)cc1  growth inhibition           -18.5
30  CC(=O)NCCc1ccc(S(=O)(=O)NCc2ccc3c(c2)OCO3)cc1  growth inhibition           -5.52
31  CC(=O)c1c(C)cc(C)c(CSc2nc(C)cc(=O)[nH]2)c1C  growth inhibition            19.8
32  CC1Cc2nc(SCC(=O)Nc3nccs3)n(C)c(=O)c2S1 (stereo not drawn)  growth inhibition           -5.05
33      CCCC(=O)Nc1cc(C)c2c(=O)oc3ccccc3c2n1  growth inhibition            3.23
34  COc1ccc(C2C(C#N)=C(C)NC3=C2C(=O)CC(C)(C)C3)c(OC)c1 (stereo not drawn)  growth inhibition           -14.1
35       O=C(CCn1c(=O)oc2ccccc21)NCCN1CCOCC1  growth inhibition           -6.78
36              O=c1oc2c3c4c(cc2s1)CCCN4CCC3  growth inhibition           -7.54
37  CCCOc1ccc(N2C(=O)CC(N3CCC(O)(c4cccc(C(F)(F)F)c4)CC3)C2=O)cc1 (stereo not drawn)  growth inhibition           -0.55
38  CC1CCc2nn(CC(=O)NCc3ccc4c(c3)OCO4)cc2C1 (stereo not drawn)  growth inhibition           -4.54
39  CC(OC(=O)C1CC=CCC1C(N)=O)C(Cl)=C(Cl)Cl (stereo not drawn)  growth inhibition           -1.67
40    CCN(CCC(=O)Nc1cc(OC)cc(OC)c1)Cc1ccccc1  growth inhibition           -14.7
41  Cc1nn(C(=O)c2ccc3c(c2)OCO3)c(N)c1-c1ccccc1  growth inhibition            5.03
42  C=CCOc1ccc(C2c3c(oc4ccccc4c3=O)C(=O)N2c2ccccn2)cc1OCC (stereo not drawn)  growth inhibition           -10.5

* * *

- method-description: MRP1 drug-resistance reversers in H69AR cells – cell-based, doxorubicin co-treatment, pilot screen (AID 601)
- cond: H69AR cells, CellTiter-Glo, 72 h; compound alone cytotoxicity; at 10 µM
measurement-kind: viability (%)

>>> print(df.to_string())
                                   molecule  measurement_kind  endpoint_value
0       c1ccc(Cn2nnc3c(N4CCCCCC4)ncnc32)cc1         viability            69.9
1  CCN1C(=O)c2ccccc2S(=O)(=O)c2ccc(C(=O)NCc3cccnc3)cc21         viability            91.5
2  COc1cc(C(=O)NCCc2ccc3c(c2)OCCO3)ccc1OCC(=O)N1CCOCC1         viability            93.3
3  CCOc1ccc(NC(=O)CN(c2cc(C)cc(C)c2)S(=O)(=O)c2c(C)noc2C)cc1         viability            74.7
4  CC1CCCCC1NC(=O)Cn1ncc2ccccc21 (stereo not drawn)         viability            90.4
5  CCOC(=O)N1CCC(NC(=O)C2CCCN(C(=O)c3cc4sccc4n3C)C2)CC1 (stereo not drawn)         viability            94.8
6  CC(C)CCSc1nc2c(c(=O)[nH]c(=O)n2C)n1CCCc1ccccc1         viability              50
7           Cc1cccc(NC(=O)Nc2cccc(C#N)c2)n1         viability              84
